- TARGET ENTITY: human TLR8 (Homo sapiens)
- Sequence (Q9NR97 27-1041): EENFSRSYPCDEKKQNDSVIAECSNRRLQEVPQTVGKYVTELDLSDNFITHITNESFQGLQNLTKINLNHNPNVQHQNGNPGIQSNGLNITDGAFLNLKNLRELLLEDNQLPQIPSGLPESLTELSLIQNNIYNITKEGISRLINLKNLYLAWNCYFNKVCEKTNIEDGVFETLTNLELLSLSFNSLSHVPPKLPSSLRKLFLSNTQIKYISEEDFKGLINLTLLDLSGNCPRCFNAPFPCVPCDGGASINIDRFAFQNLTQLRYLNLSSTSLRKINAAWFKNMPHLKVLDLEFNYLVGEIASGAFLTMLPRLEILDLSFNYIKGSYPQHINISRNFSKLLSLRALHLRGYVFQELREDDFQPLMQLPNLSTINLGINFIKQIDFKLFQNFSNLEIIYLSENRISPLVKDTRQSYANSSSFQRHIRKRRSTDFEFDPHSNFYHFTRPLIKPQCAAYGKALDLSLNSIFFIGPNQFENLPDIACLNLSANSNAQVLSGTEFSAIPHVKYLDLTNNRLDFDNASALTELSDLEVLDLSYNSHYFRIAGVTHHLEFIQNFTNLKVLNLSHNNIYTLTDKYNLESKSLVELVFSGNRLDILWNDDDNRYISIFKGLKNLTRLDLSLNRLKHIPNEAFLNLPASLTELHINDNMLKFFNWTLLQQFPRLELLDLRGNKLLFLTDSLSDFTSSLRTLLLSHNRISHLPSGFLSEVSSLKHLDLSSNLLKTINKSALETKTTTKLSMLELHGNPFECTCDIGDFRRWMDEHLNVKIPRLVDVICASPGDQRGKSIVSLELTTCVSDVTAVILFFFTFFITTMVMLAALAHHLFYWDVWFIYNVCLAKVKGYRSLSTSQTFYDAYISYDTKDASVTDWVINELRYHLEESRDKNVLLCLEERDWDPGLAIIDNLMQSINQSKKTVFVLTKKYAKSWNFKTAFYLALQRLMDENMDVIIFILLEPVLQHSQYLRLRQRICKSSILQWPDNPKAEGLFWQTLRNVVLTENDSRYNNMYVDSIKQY
- ASSAY SUMMARY: HEK293-Blue-hTLR-8 cells assay
- CONDITION PARAMETERS: HEK293-Blue-hTLR8 cells, R848 stimulation, 20 hrs, SEAP reporter; read-out: HEK/hTLR8 IC50
QUANTITY MEASURED: IC50 (nM)

Record excerpt, results attached:
[2H]c1ccc2c(N3C[C@H](CN4CC5(C4)OCc4cc(N6CC(C)(N)C6)cnc45)O[C@H](C)C3)ccc(C#N)c2n1 | 17
C[C@@H]1CN(c2ccc(C#N)n3nccc23)C[C@H](CN2CC3(C2)OCc2cc(N4CC(C)(N)C4)cnc23)O1 | 234
C[C@@H]1CN(c2ccc(C#N)n3ncc(F)c23)C[C@H](CN2CC3(C2)OCc2cc(N4CC5(CNC5)C4)ccc23)O1 | 37
[2H]c1ccc2c(N3C[C@H](CN4CC5(C4)OCc4cc(N6C[C@@H](N)[C@H](OC)C6)cnc45)O[C@H](C)C3)ccc(C#N)c2n1 | 30
[2H]c1ccc2c(N3C[C@H](CN4CC5(C4)OCc4cc(N6CCNCC6)ccc45)O[C@H](C)C3)ccc(C#N)c2n1 | 10
[2H]c1ccc2c(N3C[C@H](CN4CC5(C4)OCc4cc(N6CC(N)C6)ncc45)O[C@H](C)C3)ccc(C#N)c2n1 | 22
[2H]c1ccc2c(N3C[C@H](CN4CC5(C4)OCc4cc(N6CC(N)C6)cnc45)O[C@H](C)C3)ccc(C#N)c2n1 | 30
C[C@@H]1CN(c2cc(=O)n(C)c3ncccc23)C[C@H](CN2CC3(C2)OCc2cc(N4CC(N)C4)ccc23)O1 | 409
C[C@@H]1CN(c2ccc(C#N)n3nccc23)C[C@H](CN2CC3(C2)OCc2cc(N4CC5(CNCCO5)C4)ccc23)O1 | 58
C[C@@H]1CN(c2ccc(C#N)n3ncc(F)c23)C[C@H](CN2CC3(C2)OCc2cc(N4CC(N)C4)ccc23)O1 | 45

A. C[C@@H]1CN(c2ccc(C#N)n3ncc(F)c23)C[C@H](CN2CC3(C2)OCc2cc(N4C[C@H](N)[C@@H](O)C4)ccc23)O1
B. [2H]c1ccc2c(N3C[C@H](CN4CC5(C4)OCc4cc(N6CC7(CNCCO7)C6)ccc45)O[C@H](C)C3)ccc(C#N)c2n1
Which is greater in IC50, the first item A or the second item B ? Label of pick, please. A
(A: 142 nM, B: 9 nM)

----------
- TARGET ENTITY: CYP3A4 (Homo sapiens)
- Construct: tissue BD-Gentest 452117; host or cells: human liver microsomes
- Sequence (P08684 whole entry): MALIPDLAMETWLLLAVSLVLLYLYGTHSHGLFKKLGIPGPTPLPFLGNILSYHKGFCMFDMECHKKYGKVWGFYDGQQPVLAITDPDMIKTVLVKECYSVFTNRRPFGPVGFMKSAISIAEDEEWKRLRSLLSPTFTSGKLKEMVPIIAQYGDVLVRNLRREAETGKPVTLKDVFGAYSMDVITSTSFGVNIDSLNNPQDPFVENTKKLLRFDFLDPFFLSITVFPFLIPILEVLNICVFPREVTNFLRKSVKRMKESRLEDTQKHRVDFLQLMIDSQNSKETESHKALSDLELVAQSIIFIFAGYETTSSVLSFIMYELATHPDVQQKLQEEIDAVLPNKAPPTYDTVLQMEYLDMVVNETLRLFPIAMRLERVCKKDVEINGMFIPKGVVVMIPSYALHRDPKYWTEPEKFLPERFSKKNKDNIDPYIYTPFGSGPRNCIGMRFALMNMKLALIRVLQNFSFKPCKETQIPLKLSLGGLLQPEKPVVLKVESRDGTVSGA
- ASSAY SUMMARY: CYP inhibition assay in human liver microsome, CYP3A4
- Format: in vitro ADME
- CONDITION PARAMETERS: percentage inhibition, substrate Midazolam 5 μM, <0: not or weak inhibitor
QUANTITY MEASURED: CYP (%) 3A4

[2H]c1ccc2c(N3C[C@H](CN4CC5(C4)OCc4cc(N6CC(C)(N)C6)cnc45)O[C@H](C)C3)ccc(C#N)c2n1 [Example 21] | 12.5

P. C[C@@H]1CN(c2ccc(C#N)n3nccc23)C[C@H](CN2CC3(C2)OCc2cc(N4CC5(CNCCO5)C4)ccc23)O1 [Example 7]
Q. C[C@@H]1CN(c2ccc(C#N)n3ncc(F)c23)C[C@H](CN2CC3(C2)OCc2cc(N4CC(C)(N)C4)ncc23)O1 [Example 24]
Two entries are listed, P and Q . Which one carries the higher CYP (%) 3A4? Indicate your choice by writing its label. P

----------
- TARGET ENTITY: hERG channel (Homo sapiens)
- Construct: expressed in transfected cells
- Sequence (Q12809 whole entry): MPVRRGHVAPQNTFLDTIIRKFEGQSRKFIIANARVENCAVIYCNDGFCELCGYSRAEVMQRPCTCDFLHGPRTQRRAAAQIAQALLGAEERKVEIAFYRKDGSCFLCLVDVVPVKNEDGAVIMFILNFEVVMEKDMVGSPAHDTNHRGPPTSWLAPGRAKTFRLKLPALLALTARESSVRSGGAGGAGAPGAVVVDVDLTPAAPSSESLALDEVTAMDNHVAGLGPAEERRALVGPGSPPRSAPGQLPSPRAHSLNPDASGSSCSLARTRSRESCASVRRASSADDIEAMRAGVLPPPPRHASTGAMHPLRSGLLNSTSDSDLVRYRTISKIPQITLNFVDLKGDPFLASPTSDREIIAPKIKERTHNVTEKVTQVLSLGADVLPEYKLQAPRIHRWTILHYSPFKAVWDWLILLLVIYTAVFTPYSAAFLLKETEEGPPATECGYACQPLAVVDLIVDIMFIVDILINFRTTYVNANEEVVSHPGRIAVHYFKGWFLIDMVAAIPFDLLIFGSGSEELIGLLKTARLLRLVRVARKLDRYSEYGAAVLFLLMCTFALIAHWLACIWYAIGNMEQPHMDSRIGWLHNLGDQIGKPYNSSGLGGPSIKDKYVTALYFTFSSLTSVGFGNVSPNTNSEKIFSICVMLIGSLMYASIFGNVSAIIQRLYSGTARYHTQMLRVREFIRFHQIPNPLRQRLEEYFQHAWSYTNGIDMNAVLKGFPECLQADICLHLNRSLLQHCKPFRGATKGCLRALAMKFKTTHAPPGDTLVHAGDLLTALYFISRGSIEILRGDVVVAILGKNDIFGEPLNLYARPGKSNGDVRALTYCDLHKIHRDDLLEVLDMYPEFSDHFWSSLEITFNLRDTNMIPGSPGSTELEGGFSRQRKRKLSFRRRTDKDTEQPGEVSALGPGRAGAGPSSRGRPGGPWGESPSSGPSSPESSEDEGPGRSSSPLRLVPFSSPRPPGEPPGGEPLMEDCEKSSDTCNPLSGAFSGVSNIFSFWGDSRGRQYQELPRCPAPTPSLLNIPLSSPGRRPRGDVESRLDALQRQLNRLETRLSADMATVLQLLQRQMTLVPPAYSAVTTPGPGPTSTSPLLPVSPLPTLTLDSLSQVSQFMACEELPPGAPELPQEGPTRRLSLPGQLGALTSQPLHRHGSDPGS
- ASSAY SUMMARY: hERG channel inhibition assay (patch-clamp, CHO hERG cells)
- Format: cell-based
- CONDITION PARAMETERS: safety ratio
QUANTITY MEASURED: hERG IC20/TLR7 IC50
Please reply with the value in numeric form only.

Some compounds with known hERG IC20/TLR7 IC50 results, for comparison:
C[C@@H]1CN(c2ccc(C#N)c3ncccc23)C[C@H](CN2CCN(c3ccccc3)CC2)O1 [ER-887258, reference compound] | 8.1
C[C@@H]1CN(c2ccc(C#N)c3ncccc23)C[C@H](CN2CCN(c3ccccn3)CC2)O1 [ER-888285, reference compound] | 8.4

Which hERG IC20/TLR7 IC50 is listed for C[C@@H]1CN(c2ccc(C#N)n3ncc(F)c23)C[C@H](CN2CC3(C2)OCc2cc(N4CC5(CN(C)C5)C4)ccc23)O1 [Example 2] ? 990

Also, C[C@@H]1CN(c2ccc(C#N)c3ncccc23)C[C@H](CN2CCN(c3ccncc3)CC2)O1 [ER-888286, reference compound] please. 0.3

----------
- TARGET ENTITY: CYP2C9 (Homo sapiens)
- Construct: tissue BD-Gentest 452117; host or cells: human liver microsomes
- Sequence (P11712 whole entry): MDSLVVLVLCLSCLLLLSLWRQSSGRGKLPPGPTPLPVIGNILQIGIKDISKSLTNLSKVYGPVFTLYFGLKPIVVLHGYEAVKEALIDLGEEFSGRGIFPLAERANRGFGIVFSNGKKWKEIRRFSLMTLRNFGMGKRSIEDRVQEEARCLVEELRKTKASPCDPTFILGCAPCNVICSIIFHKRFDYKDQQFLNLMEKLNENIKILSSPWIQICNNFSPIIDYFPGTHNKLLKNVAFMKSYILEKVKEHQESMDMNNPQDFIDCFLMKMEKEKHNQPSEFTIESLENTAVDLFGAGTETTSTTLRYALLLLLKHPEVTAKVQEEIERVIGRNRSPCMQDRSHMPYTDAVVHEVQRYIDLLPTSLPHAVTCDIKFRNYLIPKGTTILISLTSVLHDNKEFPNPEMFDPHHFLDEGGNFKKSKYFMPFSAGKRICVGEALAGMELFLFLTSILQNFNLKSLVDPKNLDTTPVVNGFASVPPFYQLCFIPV
- ASSAY SUMMARY: CYP inhibition assay in human liver microsome, CYP2C9
- Format: in vitro ADME
- CONDITION PARAMETERS: percentage inhibition, substrate Diclofenac 5 μM, <0: not or weak inhibitor
QUANTITY MEASURED: CYP (%) 2C9

[2H]c1ccc2c(N3C[C@H](CN4CC5(C4)OCc4cc(N6CC(N)C6)cnc45)O[C@H](C)C3)ccc(C#N)c2n1 | 13.5
[2H]c1ccc2c(N3C[C@H](CN4CC5(C4)OCc4cc(N6C[C@H]7NCCO[C@@H]7C6)ccc45)O[C@H](C)C3)ccc(C#N)c2n1 | 3.5
C[C@@H]1CN(c2ccc(C#N)n3nccc23)C[C@H](CN2CC3(C2)OCc2cc(N4CC5(CN(C)C5)C4)ccc23)O1 | −8.5
C[C@@H]1CN(c2ccc(C#N)n3ncc(F)c23)C[C@H](CN2CC3(C2)OCc2cc(N4CC(C)(N)C4)ncc23)O1 | 21
C[C@@H]1CN(c2ccc(C#N)n3nccc23)C[C@H](CN2CC3(C2)OCc2cc(N4CC5(CNCCO5)C4)ccc23)O1 | 0
[2H]c1ccc2c(N3C[C@H](CN4CC5(C4)OCc4cc(N6CC(C)(N)C6)ccc45)O[C@H](C)C3)ccc(C#N)c2n1 | 4

a. C[C@@H]1CN(c2ccc(C#N)c3ncccc23)C[C@H](CN2CCN(c3ccncc3)CC2)O1 [ER-888286, reference compound]
b. [2H]c1ccc2c(N3C[C@H](CN4CC5(C4)OCc4cc(N6CC(C)(N)C6)cnc45)O[C@H](C)C3)ccc(C#N)c2n1
Between the entries labelled a and b , which has a larger CYP (%) 2C9 value on record? Field: selected label. Fill in the label of the entry you choose. a

----------
- TARGET ENTITY: human TLR8 (Homo sapiens)
- ASSAY SUMMARY: HEK293-Blue-hTLR-8 cells assay
- CONDITION PARAMETERS: HEK293-Blue-hTLR8 cells, R848 stimulation, 20 hrs, SEAP reporter; read-out: HEK/hTLR8 IC50
pIC50: −log10 of the molar value.
QUANTITY MEASURED: pIC50

Past entries and their recorded results:
C[C@@H]1CN(c2ccc(C#N)n3ncc(F)c23)C[C@H](CN2CC3(C2)OCc2cc(N4CC5(CN(C)C5)C4)ccc23)O1 | 7.60
C[C@@H]1CN(c2ccc(C#N)n3ncc(F)c23)C[C@H](CN2CC3(C2)OCc2cc(N4CCNCC4)ccc23)O1 | 7.62

A. C[C@@H]1CN(c2ccc(C#N)n3nccc23)C[C@H](CN2CC3(C2)OCc2cc(N4CC(N)C4)ccc23)O1
B. C[C@@H]1CN(c2ccc(C#N)n3ncc(F)c23)C[C@H](CN2CC3(C2)OCc2cc(N4CC(C)(N)C4)cnc23)O1
Looking only at measured pIC50, which entry is lower, A or B ? The response must carry the label of the picked entry. A
(A: 7.00, B: 7.62)
